# composite z-score values compiled below
# TEST PROTOCOL: probe aLefty1 binding on compound microarray – biochemical, small-molecule microarray, 635/667 nm fluorescence, primary screen (AID 1153);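 also: score merges spot fluorescence with signal-to-noise ratio from the scanned slide images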
# REPORTED CONDITIONS: higher = more signal

MOLECULE	composite z-score
COCCOC(=O)N1C(=O)[C@@]2(c3cc(C#CCC(C(=O)OC)C(=O)OC)ccc31)[C@H](C(=O)Nc1nc3ccccc3s1)[C@H]1C(=O)O[C@H](c3ccccc3)[C@H](c3ccccc3)N1[C@@H]2c1ccc(O)cc1	0.786
O=C1O[C@H](c2ccccc2)[C@H](c2ccccc2)N2[C@H]1[C@@H](C(=O)N1CCN(c3ncccn3)CC1)[C@]1(C(=O)Nc3ccc(C#CCCO)cc31)[C@H]2c1ccc(O)cc1	0.208
O=C1O[C@H](c2ccccc2)[C@H](c2ccccc2)N2[C@H]1[C@@H](C(=O)O)[C@]1(C(=O)Nc3ccc(C#CCCO)cc31)[C@H]2c1ccc(OCCO)cc1	0.154

Field: next molecule
Prompt line: Requested read-out: composite z-score. Entry: CN1C(=O)C2C(C1=O)C1C=C(CCCO)C2C(C2CC2)N1Cc1cccc(OC(F)(F)F)c1 (centres undefined)
Response line: -0.295

Value source: PubChem BioAssay
